method description: Compound cytotoxicity, XTT-based colorimetric assay
Type: cell-based
conditions used: human; uninfected MT2 cells, day 4, XTT assay
quantity kind: CC50 at 4 day

- Cn1nc(NS(C)(=O)=O)c2c(Cl)ccc(-n3c([C@H](Cc4cc(F)cc(F)c4)NC(=O)Cn4nc(C(F)F)c5c4C(F)(F)[C@@H]4C[C@H]54)nc4nc(-c5ccc(Cl)cc5Cl)ccc4c3=O)c21 (atropisomer, axis not shown; (P)): > 100 nM

Enquiry: State the recorded CC50 at 4 day for this entry: O=C(Cn1nc(C(F)(F)F)c2c1C(F)(F)[C@@H]1C[C@H]21)N[C@@H](Cc1cc(F)cc(F)c1)c1nc2nc(-c3ccccc3F)ccc2c(=O)n1-c1ccc(Cl)c2c(NS(=O)(=O)C3CC3)nn(CC(F)F)c12 (atropisomer, axis not shown; (P))
Return: > 100 nM

----------
System: recombinant NL4-3 virus (Renilla luciferase) in MT-2 cells
method description: HIV cell culture assay (antiviral activity, luciferase readout)
Assay type: cell-based
conditions used: Renilla, NL43
quantity kind: pEC50
// pEC50 is dimensionless: -log10 of concentration (M)

Below: 5 molecules and their reported pEC50.
• CS(=O)(=O)Nc1nn(CC(F)(F)F)c2c(-n3c([C@H](Cc4cc(F)cc(F)c4)NC(=O)Cn4nc(C(F)F)c5c4C(F)(F)[C@@H]4C[C@H]54)nc4nc(-c5ccccc5F)ccc4c3=O)ccc(Cl)c12 (atropisomer, axis not shown; (P)) = 10.06
• Cn1nc(NS(C)(=O)=O)c2c(Cl)ccc(-n3c([C@H](Cc4cc(F)cc(F)c4)NC(=O)Cn4nc(C(F)F)c5c4C(F)(F)[C@@H]4C[C@H]54)nc4nc(-c5ccc(F)cc5)ccc4c3=O)c21 (atropisomer, axis not shown; (P)) = 10.44
• Cn1nc(NS(C)(=O)=O)c2c(Cl)ccc(-n3c([C@H](Cc4cc(F)cc(F)c4)NC(=O)Cn4nc(C(F)F)c5c4C(F)(F)[C@@H]4C[C@H]54)nc4nc(-c5ccc(F)cc5S(C)(=O)=O)ccc4c3=O)c21 (atropisomer, axis not shown; (P)) = 9.92
• COc1nc2nc([C@H](Cc3cc(F)cc(F)c3)NC(=O)Cn3nc(C(F)(F)F)c4c3C(F)(F)[C@@H]3C[C@H]43)n(-c3ccc(Cl)c4c(NS(C)(=O)=O)nn(C)c34)c(=O)c2cc1-c1ccccc1F (atropisomer, axis not shown; (P)) = 9.80
• Cn1nc(NS(C)(=O)=O)c2c(Cl)ccc(-n3c([C@H](Cc4cc(F)cc(F)c4)NC(=O)Cn4nc(C(F)F)c5c4C(F)(F)[C@@H]4C[C@H]54)nc4nc(-c5cc(F)ccc5F)ccc4c3=O)c21 (atropisomer, axis not shown; (P)) = 9.92

Pending molecule:
Enquiry: State the recorded pEC50 for this entry: Cn1nc(NS(C)(=O)=O)c2c(Cl)ccc(-n3c([C@H](Cc4cc(F)cc(F)c4)NC(=O)Cn4nc(C(F)F)c5c4C(F)(F)[C@@H]4C[C@H]54)nc4nc(-c5ccc(F)c(F)c5F)ccc4c3=O)c21 (atropisomer, axis not shown; (P))
Return: 10.46

----------
method description: Compound cytotoxicity, XTT-based colorimetric assay
Assay type: cell-based
conditions used: human; uninfected MT2 cells, day 4, XTT assay
quantity kind: CC50 at 4 day

Below: 3 molecules and their reported CC50 at 4 day.
• Cn1nc(NS(C)(=O)=O)c2c(Cl)ccc(-n3c([C@H](Cc4cc(F)cc(F)c4)NC(=O)Cn4nc(C(F)F)c5c4C(F)(F)[C@@H]4C[C@H]54)nc4nc(-c5cc(F)cc(F)c5)ccc4c3=O)c21 (atropisomer, axis not shown; (P)) = > 0.1 µM
• Cn1nc(NS(C)(=O)=O)c2c(Cl)ccc(-n3c([C@H](Cc4cc(F)cc(F)c4)NC(=O)Cn4nc(C(F)F)c5c4C(F)(F)[C@@H]4C[C@H]54)nc4nc(-c5cc(Cl)c(F)cc5F)ccc4c3=O)c21 (atropisomer, axis not shown; (P)) = > 0.1 µM
• Cn1nc(NS(C)(=O)=O)c2c(Cl)ccc(-n3c([C@H](Cc4cc(F)cc(F)c4)NC(=O)Cn4nc(C(F)F)c5c4C(F)(F)[C@@H]4C[C@H]54)nc4nc(-c5ccc(Cl)cc5F)ccc4c3=O)c21 (atropisomer, axis not shown; (P)) = > 20 µM

Pending molecule:
Enquiry: State the recorded CC50 at 4 day for this entry: O=C(Cn1ccc(C2CC2)n1)N[C@@H](Cc1cc(F)cc(F)c1)c1nc2nc(-c3ccccc3F)ccc2c(=O)n1-c1ccc(Cl)c2c(NS(=O)(=O)C3CC3)nn(CC(F)F)c12 (atropisomer, axis not shown; (P))
Return: > 0.5 µM

----------
method description: Compound cytotoxicity, XTT-based colorimetric assay
Format: cell-based
conditions used: human; uninfected MT2 cells, day 4, XTT assay
Below is a list of entries, each paired with its recorded CC50 at 4 day value.

Below: 3 molecules and their reported CC50 at 4 day.
• Cn1nc(NS(C)(=O)=O)c2c(Cl)ccc(-n3c([C@H](Cc4cc(F)cc(F)c4)NC(=O)Cn4nc(C(F)F)c5c4C(F)(F)[C@@H]4C[C@H]54)nc4nc(-c5ccc(C(F)(F)F)cc5)ccc4c3=O)c21 (atropisomer, axis not shown; (P)) = > 100 nM
• COc1c(F)ccc(-c2ccc3c(=O)n(-c4ccc(Cl)c5c(NS(C)(=O)=O)nn(C)c45)c([C@H](Cc4cc(F)cc(F)c4)NC(=O)Cn4nc(C(F)F)c5c4C(F)(F)[C@@H]4C[C@H]54)nc3n2)c1F (atropisomer, axis not shown; (P)) = > 100 nM
• Cn1nc(NS(C)(=O)=O)c2c(Cl)ccc(-n3c([C@H](Cc4cc(F)cc(F)c4)NC(=O)Cn4nc(C(F)F)c5c4C(F)(F)[C@@H]4C[C@H]54)nc4nc(-c5ccccc5F)ccc4c3=O)c21 (atropisomer, axis not shown; (P)) = > 1000 nM

Enquiry: State the recorded CC50 at 4 day for this entry: Cn1nc(NS(C)(=O)=O)c2c(Cl)ccc(-n3c([C@H](Cc4cc(F)cc(F)c4)NC(=O)Cn4nc(C(F)F)c5c4C(F)(F)[C@@H]4C[C@H]54)nc4nc(-c5ccc(F)cc5)ccc4c3=O)c21 (atropisomer, axis not shown; (P))
Return: > 100 nM

Enquiry: Entry CS(=O)(=O)Nc1nn(CC(F)(F)F)c2c(-n3c([C@H](Cc4cc(F)cc(F)c4)NC(=O)Cn4nc(C(F)F)c5c4C(F)(F)[C@@H]4C[C@H]54)nc4nc(-c5ccccc5F)ccc4c3=O)ccc(Cl)c12 (atropisomer, axis not shown; (P)) please
Return: > 500 nM

Enquiry: Entry Cn1nc(NS(C)(=O)=O)c2c(Cl)ccc(-n3c([C@H](Cc4cc(F)cc(F)c4)NC(=O)Cn4nc(C(F)F)c5c4C(F)(F)[C@@H]4C[C@H]54)nc4nc(-c5ccc(F)c(CO)c5)ccc4c3=O)c21 (atropisomer, axis not shown; (P)) please
Return: > 500 nM

Enquiry: Entry Cn1nc(NS(C)(=O)=O)c2c(Cl)ccc(-n3c([C@H](Cc4cc(F)cc(F)c4)NC(=O)Cn4nc(C(F)F)c5c4C(F)(F)[C@@H]4C[C@H]54)nc4nc(-c5cccc(S(C)(=O)=O)c5)ccc4c3=O)c21 (atropisomer, axis not shown; (P)) please
Return: > 100 nM

----------
method description: Compound cytotoxicity, XTT-based colorimetric assay
Format: cell-based
conditions used: human; uninfected MT2 cells, day 4, XTT assay
Below is a list of entries, each paired with its recorded CC50 at 4 day value.

Enquiry: State the recorded CC50 at 4 day for this entry: Cn1nc(NS(C)(=O)=O)c2c(Cl)ccc(-n3c([C@H](Cc4cc(F)cc(F)c4)NC(=O)Cn4nc(C(F)F)c5c4C(F)(F)[C@@H]4C[C@H]54)nc4nc(-c5cc(F)ccc5F)ccc4c3=O)c21 (atropisomer, axis not shown; (P)) [Example 9]
Return: > 500 nM

Enquiry: Entry Cn1nc(NS(C)(=O)=O)c2c(Cl)ccc(-n3c([C@H](Cc4cc(F)cc(F)c4)NC(=O)Cn4nc(C(F)F)c5c4C(F)(F)[C@@H]4C[C@H]54)nc4nc(-c5cccc(F)c5F)ccc4c3=O)c21 (atropisomer, axis not shown; (P)) [Example 4] please
Return: > 100 nM

Enquiry: Entry Cn1nc(NS(C)(=O)=O)c2c(Cl)ccc(-n3c([C@H](Cc4cc(F)cc(F)c4)NC(=O)Cn4nc(C(F)F)c5c4C(F)(F)[C@@H]4C[C@H]54)nc4nc(-c5ccc(F)c(F)c5F)ccc4c3=O)c21 (atropisomer, axis not shown; (P)) [Example 15] please
Return: > 100 nM

Enquiry: Entry Cn1nc(NS(C)(=O)=O)c2c(Cl)ccc(-n3c([C@H](Cc4cc(F)cc(F)c4)NC(=O)Cn4nc(C(F)F)c5c4C(F)(F)[C@@H]4C[C@H]54)nc4nc(-c5c(F)cc(F)cc5F)ccc4c3=O)c21 (atropisomer, axis not shown; (P)) [Example 28] please
Return: > 100 nM
